- Test system: KB
- PROTOCOL_DESCRIPTION: Cytotoxicity against human KB cells
- Type: functional, cell-based
RECORDED_ENDPOINT: IC50 (µM)
Numeric answer only, unit µM assumed.

[[record]]
compound = "C=CC(/C=C\\c1ccc(O)cc1)c1ccc(OC)c(O)c1 (stereo unspecified)"
recorded_endpoint = "IC50"
assay_value = 31.9

[[record]]
compound = "C=CC(/C=C\\c1ccc(O)cc1)c1ccc(O)c(OC)c1 (stereo unspecified)"
recorded_endpoint = "IC50"
assay_value = 31.9

[[record]]
compound = "Oc1ccc(C#C/C=C/COc2ccc(O)cc2)cc1"
recorded_endpoint = "IC50"
assay_value = 8.5

[[record]]
compound = "C[C@H]1CC[C@@]2(OC1)O[C@H]1C[C@H]3[C@@H]4CC[C@@H]5C[C@@H](O[C@@H]6O[C@H](CO[C@@H]7OC[C@H](O)[C@H](O)[C@H]7O)[C@@H](O[C@@H]7OC[C@H](O)[C@H](O)[C@H]7O)[C@H](O)[C@H]6O[C@@H]6O[C@H](CO)[C@@H](O)[C@H](O)[C@H]6O)CC[C@]5(C)[C@H]4CC[C@]3(C)[C@H]1[C@@H]2C [ASPARACOSIDE]"
recorded_endpoint = "IC50"
assay_value = 4.8

[[record]]
compound = "C[C@@H]1CC[C@@]2(OC1)O[C@H]1C[C@H]3[C@@H]4CCC5=CC(=O)CC[C@]5(C)[C@H]4C[C@@H](O)[C@]3(C)[C@@]1(O)[C@@H]2C"
recorded_endpoint = "IC50"
assay_value = 24.1

[[record]]
compound = "Cc1c2ccncc2c(C)c2c1[nH]c1ccccc12"
recorded_endpoint = "IC50"
assay_value = 0.16


# evaluate next
Item COc1cc(C#C/C=C/COc2ccc(O)cc2)ccc1O has what recorded IC50?
40.5

---

- Tested on: HUVEC
- PROTOCOL_DESCRIPTION: Cytotoxicity against HUVEC
- Assay type: cell-based
- CONDITION_NOTES: Homo sapiens
Entries and their IC50

Examples from the recorded data:
[[record]]
compound = "Oc1ccc(C#C/C=C/COc2ccc(O)cc2)cc1 [ASPARENYDIOL]"
system_under_test = "HUVEC"
assay_value = "> 20 mg/L"

[[record]]
compound = "C=CC(/C=C\\c1ccc(O)cc1)c1ccc(O)c(OC)c1 (configuration not stated)"
system_under_test = "HUVEC"
assay_value = "23.7 µM"

[[record]]
compound = "C=CC(/C=C\\c1ccc(O)cc1)c1ccc(OC)c(O)c1 (configuration not stated)"
system_under_test = "HUVEC"
assay_value = "58.1 µM"

[[record]]
compound = "COc1cc(C#C/C=C/COc2ccc(O)cc2)ccc1O"
system_under_test = "HUVEC"
assay_value = "> 20 mg/L"

[[record]]
compound = "C[C@H]1CC[C@@]2(OC1)O[C@H]1C[C@H]3[C@@H]4CC[C@@H]5C[C@@H](O[C@@H]6O[C@H](CO[C@@H]7OC[C@H](O)[C@H](O)[C@H]7O)[C@@H](O[C@@H]7OC[C@H](O)[C@H](O)[C@H]7O)[C@H](O)[C@H]6O[C@@H]6O[C@H](CO)[C@@H](O)[C@H](O)[C@H]6O)CC[C@]5(C)[C@H]4CC[C@]3(C)[C@H]1[C@@H]2C [ASPARACOSIDE]"
system_under_test = "HUVEC"
assay_value = "4.1 µM"


Item COc1cc(/C=C/CO)ccc1O [CONIFERYL ALCOHOL] has what recorded IC50?
> 20 mg/L

Next compound: C=C[C@H](/C=C\c1ccc(O)cc1)c1ccc(O)cc1 [NYASOL]
> 20 mg/L

---

- Tested on: Lu1
- PROTOCOL_DESCRIPTION: Cytotoxicity against human Lu1 cells
- Assay type: functional, cell-based
Entries and their IC50
Numeric answer only, unit µM assumed.

[[record]]
compound = "COc1cc(C#C/C=C/COc2ccc(O)cc2)ccc1O"
system_under_test = "Lu1"
unit = "µM"
assay_value = 66.5


Item C=CC(/C=C\c1ccc(O)cc1)c1ccc(OC)c(O)c1 (stereo unspecified) has what recorded IC50?
25.5

Next compound: Oc1ccc(C#C/C=C/COc2ccc(O)cc2)cc1 [ASPARENYDIOL]
70.1

Next compound: C=CC(/C=C\c1ccc(O)cc1)c1ccc(O)c(OC)c1 (stereo unspecified)
15.9

Next compound: Cc1c2ccncc2c(C)c2c1[nH]c1ccccc12 [ELLIPTECINE]
0.08

Next compound: C[C@H]1CC[C@@]2(OC1)O[C@H]1C[C@H]3[C@@H]4CC[C@@H]5C[C@@H](O[C@@H]6O[C@H](CO[C@@H]7OC[C@H](O)[C@H](O)[C@H]7O)[C@@H](O[C@@H]7OC[C@H](O)[C@H](O)[C@H]7O)[C@H](O)[C@H]6O[C@@H]6O[C@H](CO)[C@@H](O)[C@H](O)[C@H]6O)CC[C@]5(C)[C@H]4CC[C@]3(C)[C@H]1[C@@H]2C [ASPARACOSIDE]
4.2

---

- PROTOCOL_DESCRIPTION: Cytotoxicity against human HOG.R5 cells
- Assay type: cell-based
RECORDED_ENDPOINT: log10 CC50 (log10 of the value in µM)
The figures below represent log10 of CC50, where CC50 is stated in µM.

Examples from the recorded data:
[[record]]
molecule = "C=C[C@H](/C=C\\c1ccc(O)cc1)c1ccc(O)cc1 [NYASOL]"
assay_value = 1.76

[[record]]
molecule = "Cc1c2ccncc2c(C)c2c1[nH]c1ccccc12 [ELLIPTECINE]"
assay_value = -1.10

[[record]]
molecule = "C=CC(CC(=O)c1ccc(O)cc1)c1ccc(O)cc1 (stereo not drawn)"
assay_value = 1.89

[[record]]
molecule = "C=CC(/C=C\\c1ccc(O)cc1)c1ccc(OC)c(O)c1 (stereo not drawn)"
assay_value = 1.08


# evaluate next
Item C=CC(/C=C\c1ccc(O)cc1)c1ccc(O)c(OC)c1 (stereo not drawn) has what recorded log10 CC50?
1.38

---

- Test system: HUVEC
- PROTOCOL_DESCRIPTION: Cytotoxicity against HUVEC
- Format: cell-based
- CONDITION_NOTES: Homo sapiens
RECORDED_ENDPOINT: IC50

[[record]]
molecule = "C=CC(CC(=O)c1ccc(O)cc1)c1ccc(O)cc1 (centres undefined)"
assay_value = "> 20 mg/L"


Item Cc1c2ccncc2c(C)c2c1[nH]c1ccccc12 has what recorded IC50?
0.37 µM

Next molecule: COC1(OC)CC[C@@]2(C)[C@H](CC[C@@H]3[C@@H]2CC(=O)[C@@]2(C)[C@H]3C[C@@H]3O[C@]4(CC[C@@H](C)CO4)[C@@H](C)[C@@]32O)C1
> 20 mg/L

Next molecule: C[C@@H]1CC[C@@]2(OC1)O[C@H]1C[C@H]3[C@@H]4CCC5=CC(=O)CC[C@]5(C)[C@H]4C[C@@H](O)[C@]3(C)[C@@]1(O)[C@@H]2C
> 20 mg/L

---

- PROTOCOL_DESCRIPTION: Cytotoxicity against human HOG.R5 cells
- Assay type: cell-based
RECORDED_ENDPOINT: CC50

[[record]]
compound = "Oc1ccc(C#C/C=C/COc2ccc(O)cc2)cc1"
assay_value = "< 18 µM"

[[record]]
compound = "C[C@H]1CC[C@@]2(OC1)O[C@H]1C[C@H]3[C@@H]4CC[C@@H]5C[C@@H](O[C@@H]6O[C@H](CO[C@@H]7OC[C@H](O)[C@H](O)[C@H]7O)[C@@H](O[C@@H]7OC[C@H](O)[C@H](O)[C@H]7O)[C@H](O)[C@H]6O[C@@H]6O[C@H](CO)[C@@H](O)[C@H](O)[C@H]6O)CC[C@]5(C)[C@H]4CC[C@]3(C)[C@H]1[C@@H]2C [ASPARACOSIDE]"
assay_value = "< 10 µM"


# evaluate next
Item COc1cc(C#C/C=C/COc2ccc(O)cc2)ccc1O has what recorded CC50?
< 17 µM
